Assayed Target: OAT1 (Mus musculus)
Construct: from tissue; host or cells: living mice (kidney proximal tubule); Oat1-KO versus WT
Sequence (Q8VC69 whole entry): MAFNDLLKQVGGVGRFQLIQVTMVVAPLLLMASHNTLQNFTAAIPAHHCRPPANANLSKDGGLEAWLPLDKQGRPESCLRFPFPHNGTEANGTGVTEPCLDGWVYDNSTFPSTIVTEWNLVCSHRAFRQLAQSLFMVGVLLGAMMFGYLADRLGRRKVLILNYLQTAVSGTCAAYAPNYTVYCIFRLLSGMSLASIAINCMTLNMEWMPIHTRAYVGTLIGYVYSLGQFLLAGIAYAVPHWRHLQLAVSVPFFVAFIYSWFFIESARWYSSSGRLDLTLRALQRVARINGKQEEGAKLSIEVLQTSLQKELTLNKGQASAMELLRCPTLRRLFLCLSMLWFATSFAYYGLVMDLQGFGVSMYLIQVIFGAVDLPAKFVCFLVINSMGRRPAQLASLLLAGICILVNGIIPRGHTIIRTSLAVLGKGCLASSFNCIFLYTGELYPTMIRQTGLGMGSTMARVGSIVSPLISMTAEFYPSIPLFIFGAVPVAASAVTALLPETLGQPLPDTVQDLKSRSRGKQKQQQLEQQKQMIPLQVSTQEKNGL
Assay Comment: Serum metabolomics, effect of genotype (Oat1-KO versus WT), 2-way ANOVA; further: key: Group 1: elevated by loss of Oat1 and elevated by microbiome depletion; Group 2: elevated by loss of Oat1 and decreased by microbiome depletion; Group 3: decreased by loss of Oat1 and elevated by microbiome depletion; Group 4: decreased by loss of Oat1 and decreased by microbiome depletion
Type: in vivo
Settings: direction of serum change by loss of Oat1 and by microbiome depletion
Where a name gives a salt, the structure may show the parent alone.
Reported Endpoint: Status

# Compound, Reported
records = [
    ("Cn1cncc1CC(O)C(=O)O (stereo not shown) [1-methyl-5-imidazolelactate]", "Group 1"),
    ("O=C(O)CCc1ccc(O)cc1 [3-(4-hydroxyphenyl)propionate]", "Group 2"),
    ("Cc1ccc(OS(=O)(=O)O)c(N)c1 [2-amino-p-cresol sulfate]", "Group 2"),
    ("O=S(=O)(O)Oc1ccc(O)cc1 [hydroquinone sulfate]", "Group 2"),
    ("Cc1ccc(OS(=O)(=O)O)cc1 [p-cresol sulfate]", "Group 2"),
    ("O=C(O)CCC(=O)NCCS(=O)(=O)O [succinoyltaurine]", "Group 1"),
    ("C[C@@H](C(=O)O)N(C)C [N,N-dimethylalanine]", "Group 1"),
    ("Cn1cncc1C[C@H](N)C(=O)O [3-methylhistidine]", "Group 2"),
    ("CN1CCC[C@H]1C(=O)O [N-methylproline]", "Group 4"),
    ("O=C(O)c1c(O)cccc1O [2,6-dihydroxybenzoic acid]", "Group 2"),
    ("O=C(O)CNC(=O)Cc1ccccc1 [phenylacetylglycine]", "Group 2"),
    ("CCc1ccc(OS(=O)(=O)O)cc1 [4-ethylphenyl sulfate]", "Group 2"),
    ("O=C(O)CCCC(=O)C(=O)O [2-oxoadipate]", "Group 4"),
]

Values compiled from paper PMC9977316.
